Activity values by entry
- measurementTarget: Delta-type opioid receptor (Mus musculus)
- protocolDetails: Maximal inhibition of muscle contraction in mouse vas deferens at 10000 nM
- Assay type: functional, tissue-based
- Set-up: scale not given: the % may be the effect or the level left
- studyConditions: Muscle tissue

Field: example entries. Status: answers known.
compound: Cc1cc(O)cc(C)c1C[C@@H](C(=O)N1Cc2ccccc2CC1C(=O)NCCCc1nc(O)c(CCCNC(=O)C2Cc3ccccc3CN2C(=O)[C@H](Cc2c(C)cc(O)cc2C)N(C)C)nc1C)N(C)C (stereo not given in full)
Activity: < 1%
--
compound: Cc1cc(O)cc(C)c1C[C@H](N)C(=O)N1Cc2ccccc2CC1C(=O)NCCCCCCNC(=O)C1Cc2ccccc2CN1C(=O)[C@@H](N)Cc1c(C)cc(O)cc1C (stereo not given in full)
Activity: < 1%
--
compound: Cc1cc(O)cc(C)c1C[C@H](N)C(=O)N1Cc2ccccc2CC1C(=O)NCCCCc1nc(O)c(CCCNC(=O)C2Cc3ccccc3CN2C(=O)[C@@H](N)Cc2c(C)cc(O)cc2C)nc1C (stereo not given in full)
Activity: < 10%
--
compound: Cc1cc(O)cc(C)c1C[C@@H](C(=O)N1Cc2ccccc2CC1C(=O)NCCCCCCNC(=O)C1Cc2ccccc2CN1C(=O)[C@H](Cc1c(C)cc(O)cc1C)N(C)C)N(C)C (stereo not given in full)
Activity: < 1%

We next turn to a different compound, shown below.
Query block: Give the reported Activity for Cc1cc(O)cc(C)c1C[C@H](N)C(=O)N1Cc2ccccc2CC1C(=O)NCCCc1nc(O)c(CCCNC(=O)C2Cc3ccccc3CN2C(=O)[C@@H](N)Cc2c(C)cc(O)cc2C)nc1C (stereo not given in full) (system: Delta-type opioid receptor (Mus musculus)).
Result block: < 1%
